Reported IC50, Human acetylcholinesterase (hAChE) (Homo sapiens, UniProt P22303).

compound	IC50
Cc1cccc2c3c(ccc12)C1=C(C(=O)C3=O)[C@@H](C)CO1 [dihydrotanshinone I]	0.5 to 0.8 µM
Cc1coc2c1C(=O)C(=O)c1c-2ccc2c(C)cccc12	~70 µM

Lab note: next compound to report on.
Lookup: Param readout= IC50; system= Human acetylcholinesterase (hAChE) (Homo sapiens, UniProt P22303); entry= `C[C@H]1COC2=C1C(=O)C(=O)c1c2ccc2c1CCCC2(C)C` ; returns value.
Found: 5 to 8 µM
